Target: human PD-L1 / Human PD-1 (Homo sapiens (Human), UniProt Q9NZQ7)
Sequence (Q9NZQ7 19-239): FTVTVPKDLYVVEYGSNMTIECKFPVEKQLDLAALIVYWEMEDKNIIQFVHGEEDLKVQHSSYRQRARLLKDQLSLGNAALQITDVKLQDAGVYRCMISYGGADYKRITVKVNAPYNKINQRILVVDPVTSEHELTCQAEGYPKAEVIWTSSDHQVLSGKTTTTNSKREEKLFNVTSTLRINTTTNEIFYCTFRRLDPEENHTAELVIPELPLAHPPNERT
Test: Enzyme-Linked Immunosorbent Assay (ELISA), PD-1/PD-L1 binding
Settings: plates coated with human PD-L1; biotinylated human PD-1; absorbance at 450 nm
pIC50: −log10 of the molar value.
Observation type: pIC50

- CCOc1cc(O[C@H]2CCc3c(-c4cccc5c4CC[C@@H]5Oc4cc(OCC)c(CN(C)CCCC(=O)O)cc4Cl)cccc32)c(Cl)cc1CN(C)CCCC(=O)O [Compound 1.025]: > 7.00
- CCOc1cc(O[C@H]2CCc3c(-c4cccc5c4CC[C@@H]5Oc4cc(OCC)c(CN(C)CCC(=O)O)cc4Cl)cccc32)c(Cl)cc1CN(C)CCC(=O)O [Compound 1.049]: > 7.00
- CN(CCCC(=O)O)Cc1cc(Cl)c(O[C@H]2CCc3c(-c4cccc5c4CC[C@@H]5Oc4cc(OCc5cncc(C#N)c5)c(CN(C)CCCC(=O)O)cc4Cl)cccc32)cc1OCc1cncc(C#N)c1 [Compound 1.035]: > 7.00

---

Biological target: human PD-L1 / Human PD-1 (Homo sapiens (Human))
Test: Enzyme-Linked Immunosorbent Assay (ELISA), PD-1/PD-L1 binding
Details: plates coated with human PD-L1; biotinylated human PD-1; absorbance at 450 nm
Observation type: IC50

- CCOc1cc(O[C@H]2CCc3c(-c4cccc5c4CC[C@@H]5Oc4cc(OCc5cncc(C#N)c5)c(CN[C@@](C)(CO)C(=O)O)cc4Cl)cccc32)c(Cl)cc1CN[C@@](C)(CO)C(=O)O: < 100 nM
- Cc1c(COc2ccc(CN[C@@](C)(CO)C(=O)O)cc2F)cccc1-c1cccc2c1CCC2Oc1ccc(CN[C@@](C)(CO)C(=O)O)cc1F (some centres unmarked): 100 to 10000 nM
- CCOc1cc(O[C@H]2CCc3c(-c4cccc5c4CC[C@@H]5Oc4cc(OCC)c(CN[C@@](C)(CO)C(=O)OC)cc4Cl)cccc32)c(Cl)cc1CN[C@@](C)(CO)C(=O)OC: 100 to 10000 nM
- CCOc1cc(O[C@H]2CCc3c(-c4cccc5c4CC[C@@H]5Oc4cc(OCC)c(CN[C@@](C)(CO)C(=O)O)cc4Cl)cccc32)c(Cl)cc1CNC[C@@H]1CCC(=O)N1: < 100 nM
- CCOc1cc(O[C@H]2CCc3c(-c4cccc5c4CC[C@@H]5Oc4cc(OCC)c(CN[C@H](C(=O)O)[C@@H](C)O)cc4Cl)cccc32)c(Cl)cc1CN[C@H](C(=O)O)[C@@H](C)O: < 100 nM

---

Target: human PD-L1 / Human PD-1 (Homo sapiens (Human), UniProt Q9NZQ7)
Experiment: Enzyme-Linked Immunosorbent Assay (ELISA), PD-1/PD-L1 binding
Details: plates coated with human PD-L1; biotinylated human PD-1; absorbance at 450 nm
pIC50: −log10 of the molar value.
Observation type: pIC50

• N#Cc1cncc(COc2cc(O[C@H]3CCc4c(-c5cccc6c5CC[C@@H]6Oc5cc(OCc6cncc(C#N)c6)c(CNCC(=O)O)cc5Cl)cccc43)c(Cl)cc2CNCC(=O)O)c1 [Compound 1.017] = > 7.00
• CN(Cc1cc(Cl)c(O[C@H]2CCc3c(-c4cccc5c4CC[C@@H]5Oc4cc(OCc5cncc(C#N)c5)c(CN(C)[C@@](C)(CO)C(=O)O)cc4Cl)cccc32)cc1OCc1cncc(C#N)c1)[C@@](C)(CO)C(=O)O [Compound 1.033] = > 7.00
• COc1cc(CN[C@@](C)(CO)C(=O)O)ccc1OCc1cccc(-c2cccc3c2CCC3Oc2ccc(CN[C@@](C)(CO)C(=O)O)cc2OC)c1C (stereo partly shown) [Compound 1.011] = 5.00 to 7.00
• CCOc1cc(O[C@H]2CCc3c(-c4cccc5c4CC[C@@H]5Oc4cc(OCC)c(CN[C@H](C(=O)OC)[C@@H](C)O)cc4Cl)cccc32)c(Cl)cc1CN[C@H](C(=O)OC)[C@@H](C)O [Compound 1.034] = 5.00 to 7.00
• CCOc1cc(O[C@H]2CCc3c(-c4cccc5c4CC[C@@H]5Oc4cc(OCC)c(CN[C@H](CO)C(=O)O)cc4Cl)cccc32)c(Cl)cc1CN[C@H](CO)C(=O)O [Compound 1.018] = > 7.00
• CCOc1cc(O[C@H]2CCc3c(-c4cccc(COc5ccc(CN(C)C)cc5)c4C)cccc32)c(Cl)cc1CN[C@@](C)(CO)C(=O)O [Compound 1.037] = > 7.00
• N#Cc1cncc(COc2cc(O[C@H]3CCc4c(-c5cccc6c5CC[C@@H]6Oc5cc(OCc6cncc(C#N)c6)c(CN[C@@H](CO)C(=O)O)cc5Cl)cccc43)c(Cl)cc2CN[C@@H](CO)C(=O)O)c1 [Compound 1.038] = > 7.00
• CCOc1cc(O[C@H]2CCc3c(-c4cccc(COc5cc(COC)c(CN6CCC(OC(=O)C(C)C)CC6)cc5Cl)c4C)cccc32)c(Cl)cc1CN1CCC(OC(=O)C(C)C)CC1 [Compound 1.005] = 5.00 to 7.00
• CC(C)OC(=O)[C@](C)(CO)NCc1cc(Cl)c(O[C@H]2CCc3c(-c4cccc5c4CC[C@@H]5Oc4cc(OCc5cncc(C#N)c5)c(CN[C@@](C)(CO)C(=O)OC(C)C)cc4Cl)cccc32)cc1OCc1cncc(C#N)c1 [Compound 1.041] = 5.00 to 7.00
• Cc1c(COc2ccc(CN[C@@](C)(CO)C(=O)O)cc2Cl)cccc1-c1cccc2c1CCC2Oc1ccc(CN[C@@](C)(CO)C(=O)O)cc1Cl (stereo partly shown) [Compound 1.024] = > 7.00

---

IC50 reference
Biological target: human PD-L1 / Human PD-1 (Homo sapiens (Human))
Assay: Enzyme-Linked Immunosorbent Assay (ELISA), PD-1/PD-L1 binding
Settings: plates coated with human PD-L1; biotinylated human PD-1; absorbance at 450 nm
Observation type: IC50

* CCOc1cc(O[C@H]2CCc3c(-c4cccc5c4CC[C@@H]5Oc4cc(OCC)c(CN[C@H]5CCC(=O)NC5)cc4Cl)cccc32)c(Cl)cc1CN[C@H]1CCC(=O)NC1 | < 100 nM
* C[C@@](CO)(NCc1cc(Cl)c(O[C@H]2CCc3c(-c4cccc5c4CC[C@@H]5Oc4cc(OCc5cncc(C#N)c5)c(CN[C@@](C)(CO)C(=O)O)cc4Cl)cccc32)cc1OCc1cncc(C#N)c1)C(=O)O | < 100 nM
* CCOc1cc(O[C@H]2CCc3c(-c4cccc5c4CC[C@@H]5Oc4cc(OCC)c(CN5CCC6(C5)NC(=O)NC6=O)cc4Cl)cccc32)c(Cl)cc1CN[C@@](C)(CO)C(=O)O (stereo partly shown) | < 100 nM
* CCOc1cc(O[C@H]2CCc3c(-c4cccc5c4CC[C@@H]5Oc4cc(OCC)c(CN(C)[C@@H](CO)C(=O)O)cc4Cl)cccc32)c(Cl)cc1CN(C)[C@@H](CO)C(=O)O | < 100 nM
* CCOc1cc(O[C@H]2CCc3c(-c4cccc5c4CC[C@@H]5Oc4cc(OCC)c(CN(C)[C@@](C)(CO)C(=O)O)cc4Cl)cccc32)c(Cl)cc1CN(C)C[C@@H]1CCC(=O)N1 | < 100 nM
* CCOc1cc(OCc2cccc(-c3cccc4c3CCC4Oc3ccc(CN[C@@](C)(CO)C(=O)O)c(OCC)c3)c2C)ccc1CN[C@@](C)(CO)C(=O)O (stereo partly shown) | 100 to 10000 nM
* CCOc1cc(OCc2cccc(-c3cccc4c3CC[C@@H]4Oc3cc(OCC)c(CNCCS(=O)(=O)O)cc3Cl)c2C)c(Cl)cc1CNCCS(=O)(=O)O | < 100 nM
* CCOc1cc(O[C@H]2CCc3c(-c4cccc5c4CC[C@@H]5Oc4cc(OCC)c(CN[C@@H](CO)C(=O)O)cc4Cl)cccc32)c(Cl)cc1CN[C@@H](CO)C(=O)O | < 100 nM
* CCOc1cc(O[C@H]2CCc3c(-c4cccc(COc5cc(COC)c(CN6CCC(OC(=O)[C@@H](N)C(C)C)CC6)cc5Cl)c4C)cccc32)c(Cl)cc1CN1CCC(OC(=O)[C@@H](N)C(C)C)CC1 | 100 to 10000 nM
* CCOc1cc(O[C@@H]2c3cccc(-c4cccc(COc5cc(COC)c(CN[C@@](C)(CO)C(=O)O)cc5Cl)c4C)c3C[C@@H]2F)c(Cl)cc1CN[C@@](C)(CO)C(=O)O (mixture of isomers) | < 100 nM

---

pIC50 reference
Target: human PD-L1 / Human PD-1 (Homo sapiens (Human), UniProt Q9NZQ7)
Assay: Enzyme-Linked Immunosorbent Assay (ELISA), PD-1/PD-L1 binding
Details: plates coated with human PD-L1; biotinylated human PD-1; absorbance at 450 nm
pIC50: −log10 of the molar value.
Observation type: pIC50

* CCOc1cc(O[C@H]2CCc3c(-c4cccc5c4CC[C@@H]5Oc4cc(OCC)c(CN(C)CCCC(=O)OC)cc4Cl)cccc32)c(Cl)cc1CN(C)CCCC(=O)OC | 5.00 to 7.00
* CCOc1cc(O[C@H]2CCc3c(-c4cccc5c4CC[C@@H]5Oc4cc(OCC)c(CN5CC6(CC(O)C6)C5)cc4Cl)cccc32)c(Cl)cc1CN1CC2(CC(O)C2)C1 | > 7.00
* CCOc1cc(O[C@H]2CCc3c(-c4cccc5c4CC[C@@H]5Oc4cc(OCC)c(CN[C@@](C)(CO)C(=O)O)cc4Cl)cccc32)c(Cl)cc1CN[C@@H]1CCC[C@@H]1O | > 7.00
* C[C@@H](O)[C@H](NCc1cc(Cl)c(O[C@H]2CCc3c(-c4cccc5c4CC[C@@H]5Oc4cc(OCc5cncc(C#N)c5)c(CN[C@H](C(=O)O)[C@@H](C)O)cc4Cl)cccc32)cc1OCc1cncc(C#N)c1)C(=O)O | > 7.00
* CCOc1cc(O[C@H]2CCc3c(-c4cccc5c4CC[C@@H]5Oc4cc(OCC)c(CN(C)CCC(=O)OC)cc4Cl)cccc32)c(Cl)cc1CN(C)CCC(=O)OC | 5.00 to 7.00
* CCOc1cc(NC2CCc3c(-c4cccc(COc5cc(OCC)c(CN(C)CCCC(=O)OC)cc5Cl)c4C)cccc32)c(Cl)cc1CN(C)CCCC(=O)OC (stereo not drawn) | 5.00 to 7.00
* CCOc1cc(O[C@H]2CCc3c(-c4cccc5c4CC[C@@H]5Oc4cc(OCC)c(CN[C@H](C(=O)NS(C)(=O)=O)[C@@H](C)O)cc4Cl)cccc32)c(Cl)cc1CN[C@H](C(=O)NS(C)(=O)=O)[C@@H](C)O | > 7.00
* CCOc1cc(O[C@H]2CCc3c(-c4cccc5c4CC[C@@H]5Oc4cc(OCc5cc(C#N)cc(C#N)c5)c(CN[C@@](C)(CO)C(=O)O)cc4Cl)cccc32)c(Cl)cc1CN[C@@](C)(CO)C(=O)O | > 7.00
* CCOc1cc(O[C@H]2CCc3c(-c4cccc5c4CC[C@@H]5Oc4cc(OCC)c(CN)cc4Cl)cccc32)c(Cl)cc1CN | 5.00 to 7.00
* CCOc1cc(O[C@H]2CCc3c(-c4cccc5c4CC[C@@H]5Oc4cc(OCC)c(CN[C@@](C)(CO)C(=O)O)cc4Cl)cccc32)c(Cl)cc1CN[C@@](C)(CO)C(=O)O | > 7.00
* CCOc1cc(O[C@H]2CCc3c(-c4cccc5c4CC[C@@H]5Oc4cc(OCC)c(CN(C)[C@@](C)(CO)C(=O)O)cc4Cl)cccc32)c(Cl)cc1CN(C)[C@@](C)(CO)C(=O)O | > 7.00
* Cc1cc(CN[C@@](C)(CO)C(=O)O)ccc1OCc1cccc(-c2cccc3c2CCC3Oc2ccc(CN[C@@](C)(CO)C(=O)O)cc2C)c1C (stereo partly drawn) | > 7.00
* CCOc1cc(O[C@H]2CCc3c(-c4cccc5c4CC[C@@H]5Oc4cc(OCC)c(CN[C@@H](CCO)C(=O)O)cc4Cl)cccc32)c(Cl)cc1CN[C@@H](CCO)C(=O)O | > 7.00
* CCOc1cc(O[C@H]2CCc3c(-c4cccc(COc5cc(COC)c(CN[C@@](C)(CO)C(=O)O)cc5Cl)c4C)cccc32)c(Cl)cc1CN[C@@](C)(CO)C(=O)O | > 7.00
* CCOc1cc(O[C@H]2CCc3c(-c4cccc5c4CC[C@@H]5Oc4cc(OCC)c(CN[C@@H](CO)C(N)=O)cc4Cl)cccc32)c(Cl)cc1CN[C@@H](CO)C(N)=O | > 7.00
* CCOc1cc(O[C@H]2CCc3c(-c4cccc5c4CC[C@H]5Oc4cc(OCC)c(CN[C@@](C)(CO)C(=O)O)cc4Cl)cccc32)c(Cl)cc1CN[C@@](C)(CO)C(=O)O | > 7.00
* CCOc1cc(O[C@H]2CCc3c(-c4cccc(COc5cc(COC)c(CN(C)CCCC(=O)O)cc5Cl)c4C)cccc32)c(Cl)cc1CN(C)CCCC(=O)O | > 7.00
* CCOc1cc(O[C@H]2CCc3c(-c4cccc5c4CC[C@@H]5Oc4cc(OCC)c(CN5CCC5(C)C)cc4Cl)cccc32)c(Cl)cc1CN1CCC1(C)C | > 7.00
* CCOc1cc(NC2CCc3c(-c4cccc(COc5cc(OCC)c(CN(C)CCCC(=O)O)cc5Cl)c4C)cccc32)c(Cl)cc1CN(C)CCCC(=O)O (stereo not drawn) | > 7.00
* COC(=O)CCCN(C)Cc1cc(Cl)c(O[C@H]2CCc3c(-c4cccc5c4CC[C@@H]5Oc4cc(OCc5cncc(C#N)c5)c(CN(C)CCCC(=O)OC)cc4Cl)cccc32)cc1OCc1cncc(C#N)c1 | > 7.00
* N#Cc1cncc(COc2cc(O[C@H]3CCc4c(-c5cccc6c5CC[C@@H]6Oc5cc(OCc6cncc(C#N)c6)c(CN[C@@H](CCO)C(=O)O)cc5Cl)cccc43)c(Cl)cc2CN[C@@H](CCO)C(=O)O)c1 | > 7.00
